Numbers sourced from the supplement of paper PMC13380429.

Tested on: Vero E6
Assay: cell viability relative to DMSO; higher = less toxic
Settings: 72 h; 10 nM
Counter-ions that a name gives are not always drawn.
Experimental Endpoint: cell viability (%)
Supply the numeric figure in %, leaving out any unit text.

Compound: C=CCN1CC[C@]23c4c5ccc(O)c4O[C@H]2C(=O)CC[C@@]3(O)[C@H]1C5 [NALOXONE HYDROCHLORIDE]
System Tested: Vero E6
cell viability, %: 103

Exercise: Would you kindly share the measured cell viability for Cc1cc(C)n(-c2cccc([C@H](CC(=O)O)CN3CC[C@@H](CCc4ccc5c(n4)NCCC5)C3)c2)n1 [integrin-antagonist-1] ?
Solution: 102

Exercise: // next record CCOC(=O)c1c(/C(C#N)=C\N)c2ccc(Cl)c(Cl)c2n1C [KH-CB19]
Solution: 104

Exercise: // next record C[C@H]1COC2=C1C(=O)C(=O)c1c2ccc2c1CCCC2(C)C [cryptotanshinone]
Solution: 102

Exercise: // next record `CC[C@H](NC(=O)c1c(C)c(-c2ccccc2)nc2ccccc12)c1ccccc1`
Solution: 109

Exercise: // next record Nc1nc(=O)c(Br)c(-c2ccccc2)[nH]1 [bropirimine]
Solution: 98.3

Exercise: // next record C=C[C@@](C)(/C=C/c1ccc(O)cc1)CCC=C(C)C [bakuchiol]
Solution: 110

Exercise: // next record C[C@H](N)Cc1c[nH]cn1 [alpha-methylhistamine-dihydrobromide-(S)-(+)]
Solution: 96.5

Exercise: // next record C[C@]12CCC(=O)C=C1C=C[C@@H]1[C@@H]2CC[C@@]2(C)[C@H]1CC[C@@]2(O)CCC(=O)O [potassium-canrenoate]
Solution: 91.6

Exercise: // next record CCCCOc1cc(C(=O)NCCN(CC)CC)c2ccccc2n1 [cinchocaine]
Solution: 104

Exercise: // next record Cc1ccc2c(Cl)cc(Cl)c(O)c2n1 [chlorquinaldol]
Solution: 88.9

Exercise: // next record CC1(C)O[C@@H]2C[C@H]3[C@@H]4CCC5=CC(=O)CC[C@]5(C)[C@@]4(F)[C@@H](O)C[C@]3(C)[C@]2(C(=O)CCl)O1 [halcinonide]
Solution: 103

Exercise: // next record CC(C)c1cc(C(C)C)c(CC(=O)NS(=O)(=O)Oc2c(C(C)C)cccc2C(C)C)c(C(C)C)c1 [avasimibe]
Solution: 94.8

Exercise: // next record COc1ccc(-c2coc3cc(O)cc(O)c3c2=O)cc1 [4-methylgenistein]
Solution: 95

Exercise: // next record O=C(Nc1cnn2ccc(N3CCC[C@@H]3c3cc(F)ccc3F)nc12)N1CC[C@H](O)C1 [larotrectinib]
Solution: 94.3

Exercise: // next record C/C=C/C=C/C(=O)O [sorbic-acid]
Solution: 103

Exercise: // next record `CC(C)(O)C(=O)N1CCN(c2ccc(C(F)(F)F)c(C3=C(c4c[nH]c5ccccc45)C(=O)NC3=O)c2)CC1`
Solution: 97.7

Exercise: // next record Clc1ccc(C(c2ccccc2Cl)C(Cl)Cl)cc1 (stereo not drawn) [mitotane]
Solution: 96.6

Exercise: // next record C=CC[C@]1(O)CC[C@H]2[C@@H]3CCC4=CCCC[C@@H]4[C@H]3CC[C@@]21C [allylestrenol]
Solution: 91.5

Exercise: // next record CO/N=C(\C(=O)N[C@@H]1C(=O)N2C(C(=O)O)=C(CSC(=O)c3ccco3)CS[C@H]12)c1csc(N)n1 [CEFTIOFUR HYDROCHLORIDE]
Solution: 107

Exercise: // next record OCCOc1ccc(/C(=C(/CCCl)c2ccccc2)c2ccccc2)cc1 [ospemifene]
Solution: 102

Exercise: // next record COc1cc2c(Nc3ccc(Cl)c(Cl)c3F)ncnc2cc1OC[C@@H]1C[C@@H]2CN(C)C[C@@H]2C1 [XL647]
Solution: 100
